- System: MS2 coat protein
- measurement.description: apparent KD of MS2 coat protein; designed switch direction (-1 OFF switch, 1 ON switch): 1; higher = weaker reporter binding
- applied.conditions: Eterna round: R95; input ligand: FMN 200 uM
measure: apparent KD of MS2 coat protein (nM)
Give just the numeric value; nM need not be written.

Examples with their reported apparent KD of MS2 coat protein follow.
AGUCCAGCCUGAGCUGGACAAAAGCAUGUACAUGAGGAUCACCCAUGUCAUGUACAAGCUUUUUGCUCGAAAUAAUA [Mat - hsa-mir-208a - Mod of JL - D32] (puzzle: Sensor for hsa-mir-208a)	653
AGUCCAGCGAAAGCUGGACAGAAGCAUGUACAUGAGGAUCACCCAUGUUCAUGUACAAGCUUUUUGCUCGUCUUAAA [JL mod - D95 - 1] (puzzle: Sensor for hsa-mir-208a)	476
GUUAUACAUGAGGAUCACCCAUGUCAAUGUAGUCGAGGAUAUGGGCAGCUAUGAGGCGUACUAGAAGGCGAGGAGU [JL-ss1-3.15 ViennaUCT mod] (puzzle: Same State 1)	90.7
GGUUUAGUCAAGUGCCGUUGCACUUGAAAACAUGAGGAUCACCCAUGUUUGGGACAAGCUUUGCUCCUCGUCUUUCC [Tiatmaraen] (puzzle: Sensor for hsa-mir-208a)	477
GUGGUGUAGAUACAGGAUAUGUUGCUCGUAACAUGAGGAUCACCCAUGUAUGUAUGAGAAUGAAUGCAGAAGGGUGCACACCACG [Mat - Same State 2 - Mod of UCT - D77] (puzzle: Same State 2)	13.8

Exam item: For the sequence GACAAUCUAUCUGAGGAUAUCAUGAAAAAAACAUGAGGAUCACCCAUGUGCAGGAAAACUGCAUAUGAGAAGGCAGAUAGAUUGA [salish99_SS2_r3_009] (puzzle: Same State 2) , what apparent KD of MS2 coat protein is on record?
Marked response: 19.7

Exam item: Try this sequence next: GGUCCGGCCUGAGCUGGACCGAAGCAUGUACAUGAGGAUCACCCAUGUCAUGUACAGGCUUCUUGCUCGUCUUGUUG [JL-shm-2.15 JL Mod] (puzzle: Sensor for hsa-mir-208a)
Marked response: 90.3

Exam item: Try this sequence next: AGCUAUCGAAAACGAUAGCAAAGGCAUGUACAUGAGGAUCACCCAUGUCAUGUACAAGCUUUUUGCUCGUCUUAAAA [Zipper 23 - 3] (puzzle: Sensor for hsa-mir-208a)
Marked response: 799

Exam item: Try this sequence next: ACUUGCUUUUUGCUCAUUUUAUGUCCGAAACAUGAGGAUCACCCAUGUGUAGAUUAUGUGUUGUUUUUGAUACGUGA [JR_SHM208A_Sub067] (puzzle: Sensor for hsa-mir-208a)
Marked response: 24.6

Exam item: Try this sequence next: GUAAAACAUGAGGAUCACCCAUGUCAACAAAGUCGAGGAUAUGGGCAAAUAAAAUAAGAACCAGAAGGCGAAUAAG [salish99_SS1_r3_009] (puzzle: Same State 1)
Marked response: 44

Exam item: Try this sequence next: AAGGUCUUCGUACAGGAUAUGCACUUGUGCACAUGAGGAUCACCCAUGUGGGAAAAGGUCACAGGGCAGAAGGGUAUUUAUAAAA [Erriti] (puzzle: Same State 2)
Marked response: 39.4

---

- System: MS2 coat protein
- measurement.description: apparent KD of MS2 coat protein; designed switch direction (-1 OFF switch, 1 ON switch): -1; higher = weaker reporter binding
- applied.conditions: Eterna round: R95; input ligand: FMN 200 uM
measure: apparent KD of MS2 coat protein (nM)
Give just the numeric value; nM need not be written.

Examples with their reported apparent KD of MS2 coat protein follow.
AAGAAACAUGAGGAUCACCCAUGUGAGGAUAUGAUAAAGAAAAGAAAAGAAAGAAGACUCAGAAGGCACAAAGG [salish99-ex1_r3_041] (puzzle: Exclusion 1)	31
GAAAAGGUAGGAUAUACGAAAAAAAAGGGUAAAAAAAAAACACAUGAGGAUCACCCAUGUAGAAGGACCAAAAG [salish99_ex2_r3_062] (puzzle: Exclusion 2)	44.4

Exam item: Lookup: apparent KD of MS2 coat protein / MS2 coat protein / CUGGUCCGAGGAUAUAUUAAGUGAUACAUGAGGAUCACCCAUGUAAUUUGAUGGAUGUAAAUAGAAGGCGGACUAG [JL-ex5-3.10] (puzzle: Exclusion 5)
Marked response: 36.8

Exam item: Try this sequence next: AAAAGGACAGGAUAUUCGACUCGCAACAUGAGGAUCACCCAUGUGGUCGUCCAGUCGCUCGAAGAAGGGUUAAAAC [Cegeesbe] (puzzle: Exclusion 5)
Marked response: 74.7

Exam item: Try this sequence next: GGUACUAACACGAAAGUGUUAGUACUAUAAGCUUGUGUUACAUGAGGAUCACCCAUGUCCUCAUAGGCUCGUCUUAU [JL-sv3-2.18 mat747 mod] (puzzle: Sensor v3, turn-off variant 2)
Marked response: 292

---

- Test system: MS2 coat protein
- measurement.description: apparent KD of MS2 coat protein; designed switch direction (-1 OFF switch, 1 ON switch): -1; higher = weaker reporter binding
- applied.conditions: input ligand: none
Examples of sequences with documented apparent KD of MS2 coat protein follow.
Give just the numeric value; nM need not be written.

Examples with their reported apparent KD of MS2 coat protein follow.
ACAAGCUUUUUGCUCGUUUACAUGAGGAUCACCCAUGUGUCUUCACGCCCGGGCCCGGGCAAGCCCGGGCCCGGGCG [-47, -77, A 16%] (Eterna round: R97, puzzle: Sensor, turn-off variant 1)	45
GUUUUAUAUGAAGGAUAUACUUAACAUGAGGAUCACCCAUGUGGUGUUGUGAGUGAGUGAGUUUAGUAGAAGGUCAAUUCUUUU [JMF's solution 99] (Eterna round: R96, puzzle: Exclusion NG 2)	408
AGAGAGUCAGGAUAUGACGAAGAGAACAUGAGGAUCACCCAUGUUGCUUCGUUUUUAUCGUCAGAAGGGACGAACU [JR_Ex5_Sub088] (Eterna round: R97, puzzle: Exclusion 5)	13.9
AAAACAAACGAAGGAUAUGCAACCCGGCGGUACGCAGAAGGUCGAAAGAUUUUCAUUCUACAUGAGGAUCACCCAUGUACGGGC [Leange] (Eterna round: R96, puzzle: Exclusion NG 1)	52.3
GCCGUCAGUGUGAGGAUAUGCCUAUGGAUACGUAGGCAGAAGGCACAUGAGGAUCACCCAUGUCCAAAGACGGC [JL-BMX4-4.30 Eli mod] (Eterna round: R97, puzzle: Brourd's mod of Exclusion 4)	181
AAUUUUUAUGUAAGGAUAUAAGUUUGGAAACGGGCUUAGAAGGUACAUGAGGAUCACCCAUGUAUAAUGUGCGU [-20.6, -20.4 kcal, 32% A] (Eterna round: R97, puzzle: Brourd's mod of Exclusion 4)	23.2

Exam item: For the sequence AGCUAGUCAGGAUAUUCUAUUAAUUACAUGAGGAUCACCCAUGUGAAUGGGCAAGGGUGUGAAGAAGGGACUAGCG [Omei Ex5 A16] (Eterna round: R97, puzzle: Exclusion 5) , what apparent KD of MS2 coat protein is on record?
Marked response: 1030

Exam item: Try this sequence next: ACCUUACUUGAGGAUCACCCAAGUCAGGAUAUACACCAGAAUAAAUCCCAGCCCUGGCGUAGAAGGGACGGGUG [Soesma] (Eterna round: R97, puzzle: Exclusion 1)
Marked response: 21.8

Exam item: Try this sequence next: ACAUGAGGAUCACCCAUGUCUGGCUGGUCCGCUCCGGCUGUUGAGGAUAUAGCUCGGUGUCCGCGCUAGAAGGUGAGGGCUGGC [Aenatbe mod 34] (Eterna round: R96, puzzle: Exclusion NG 3)
Marked response: 31.9

---

- System: MS2 coat protein
- measurement.description: apparent KD of MS2 coat protein; designed switch direction (-1 OFF switch, 1 ON switch): -1; higher = weaker reporter binding
- applied.conditions: Eterna round: R95; input ligand: none
measure: apparent KD of MS2 coat protein (nM)
Give just the numeric value; nM need not be written.

Examples with their reported apparent KD of MS2 coat protein follow.
GACGCUAAAGGAUAUACAUGAGGAUCACCCAUGUUGAGGAAGGUUAGAUGAGGAGUAAGUAGAAGGUUAGACGA [JR_Exclu3_Sub091] (puzzle: Exclusion 3)	30.8
AGUACUAUCACGAAAGUGUUAGUACAAUAAGCUUGUGAAACAUGAGGAUCACCCAUGUCCUCAUAAGCUCGUCUUAU [salish99_TOv2_r3_019] (puzzle: Sensor v3, turn-off variant 2)	15.7

Exam item: For the sequence GGUUGGCGAGGAUAUACAUGAGGAUCACCCAUGUGAGAGACAAAAGUGAGGAAGAAAAGUAGAAGGCGCUGACG [salish99_ex3_r3_022] (puzzle: Exclusion 3) , what apparent KD of MS2 coat protein is on record?
Marked response: 232

Reference source for all entries: the supplement of paper PMC9170038
